Below is a list of entries, each paired with its recorded apparent KD of MS2 coat protein value.
- Tested on: MS2 coat protein
- assay_details: apparent KD of MS2 coat protein; designed switch direction (-1 OFF switch, 1 ON switch): 1; higher = weaker reporter binding
- settings: input ligand: none

{"biosequence": "GAGCCAGUCCGAGGAUAUUCAUAUACAUGAGGAUCACCCAUGUAGGCUCAGAAAAGAGAGCCUUGGGAGAAGGCGGACUGGCUC [Xeonanisa<<4] (Eterna round: R96, puzzle: Same State NG 2)", "apparent KD of MS2 coat protein, nM": 50.8}
{"biosequence": "AACCCGAAGGGAGGAUAUGGCACCUUAUUGGUGCCAGAAGGUCCUCACAUGAGGAUCACCCAUGUGGGCCGGUCGAAAGACCGG [Fiskers NG1ss - 12] (Eterna round: R96, puzzle: Same State NG 1)", "apparent KD of MS2 coat protein, nM": 500}
{"biosequence": "UCACCUAUCGACAUGAGGAUCACCCAUGUGGAUUGAGCUUCCAAGGAUAUCGGCGCACAACCCAUCGAGAAGGUGGAAAGAUAC [Eternabot solution 32] (Eterna round: R96, puzzle: Same State NG 3)", "apparent KD of MS2 coat protein, nM": 18}
{"biosequence": "GGGUAGAUUUGAGGAUAUCCUUAACCAACAUGAGGAUCACCCAUGUCCAAAAGAGUUCAUUUACCGGAGAAGGCAGAUGCACCC [Eternabot solution 50] (Eterna round: R96, puzzle: Same State NG 2)", "apparent KD of MS2 coat protein, nM": 86.4}
{"biosequence": "ACAUGAAAUUCAGGAUAUUUUGUACCUACAUGUGACAUGAGGAUCACCCAUGUGGUAAGUAUAAGAGAGAAGGGAAAGAUAUGU [Equivalence 5 - Jieux - Same State NG 2] (Eterna round: R96, puzzle: Same State NG 2)", "apparent KD of MS2 coat protein, nM": 38.5}
{"biosequence": "ACAUGAAAUACAGGAUAUUUUGUACCUACAUGUGACAUGAGGAUCACCCAUGUGGUAAGUAUAAGAGAGAAGGGUAAGAUAUGU [Equivalence 4 - Jieux - Same State NG 2] (Eterna round: R96, puzzle: Same State NG 2)", "apparent KD of MS2 coat protein, nM": 66.4}
{"biosequence": "GAAACAUGACGAGGAUAUGGUACAUGAGGAUCACCCAUGUAUGUACCACGACGCGUACGUCGAAUCCAGAAGGCGUCGUGAAAG [Mat - Same State NG 2 - JL mod - D20] (Eterna round: R96, puzzle: Same State NG 2)", "apparent KD of MS2 coat protein, nM": 86.4}
{"biosequence": "GGUGCCAAUAAAGCCUACAUGAGGAUCACCCAUGUAUGUAGGCAGGAUAUCGUUUGCUUUGCAAACGAGAAGGGCCGAGGCACC [JL SSNG3 1.19] (Eterna round: R96, puzzle: Same State NG 3)", "apparent KD of MS2 coat protein, nM": 42.7}
{"biosequence": "GUUACAUGAGGAUCACCCAUGUAUGUGUGGGAGUAAGUGUCUUAGGAUAUCUAUUAUAUAAAUUAAGAGAAGGAAGAUUGUUGU [JMF's solution 16] (Eterna round: R96, puzzle: Same State NG 3)", "apparent KD of MS2 coat protein, nM": 124}
